# assay target: Mucolipin-3 (Homo sapiens) (UniProt Q8TDD5)
# Sequence (Q8TDD5 whole entry, looked up): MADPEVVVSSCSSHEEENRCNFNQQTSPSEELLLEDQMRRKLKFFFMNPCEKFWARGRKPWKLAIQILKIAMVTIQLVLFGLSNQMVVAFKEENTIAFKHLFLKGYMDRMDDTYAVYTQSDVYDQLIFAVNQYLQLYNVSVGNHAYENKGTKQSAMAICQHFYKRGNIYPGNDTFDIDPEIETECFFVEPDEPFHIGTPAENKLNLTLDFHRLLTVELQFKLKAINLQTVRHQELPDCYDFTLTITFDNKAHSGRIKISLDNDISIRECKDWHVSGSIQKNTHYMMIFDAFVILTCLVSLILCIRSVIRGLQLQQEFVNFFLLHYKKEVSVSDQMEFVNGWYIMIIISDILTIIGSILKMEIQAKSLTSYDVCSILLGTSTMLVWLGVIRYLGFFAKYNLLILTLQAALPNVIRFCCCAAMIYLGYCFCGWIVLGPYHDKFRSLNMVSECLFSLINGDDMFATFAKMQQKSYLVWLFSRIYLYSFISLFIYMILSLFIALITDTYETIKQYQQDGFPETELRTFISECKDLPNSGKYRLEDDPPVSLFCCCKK
# procedure summary: human TRPML3 channel agonists, primary screen, cell-based, HEK293 TRPML3-YFP, Fluo-8 calcium fluorescence, 3 µM (AID 1448)
# applied conditions: at 3 µM, 100% = the carbachol control signal
Out of some 220,000 compounds screened, about 630 (0.29%) were called active.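 Rule for the calls: active = activation above its plate's cutoff, the mean activation of the plate's test wells plus 3 SD (cut at about 12% in these data); inactive = the rest.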 For the sample, actives were picked, then their nearest neighbours and some compounds at random.
Result category, one only: active, inactive

Cc1cc(Cl)ccc1OCc1nc(-c2ccncc2)no1: inactive
CCCC(=O)Nc1ccc2c(c1)nc(CCNC(=O)c1ccco1)n2C: inactive
CC(=O)c1ccc(-c2ccc(Cn3c(C)nc4cc(N)c(C)nc43)cc2)cc1: inactive
CCN(CC)C(=O)CC1(c2ccccc2OC)CCOC(C(C)C)C1 (centres undefined): active
Cc1nonc1C1CCCN1Cc1nc(-c2ccc(F)cc2F)oc1C (centres undefined): inactive
CCOc1cc(/C=C2/C(=N)N3OC(C)=CC3=NC2=O)ccc1OC: inactive

### Prompt Call for entry Cc1cccc(-n2cnc(C(=O)NNC(=S)Nc3ccccc3)c2)n1 :
### Response inactive

### Prompt Call for entry O=c1[nH]c2c(c(=O)n1Cc1ccccc1)CCC2 :
### Response inactive

### Prompt Call for entry O=C(COC(=O)c1c2c(nc3ccccc13)/C(=C\c1cccs1)CCC2)Nc1ccccc1Cl :
### Response inactive

### Prompt Call for entry O=C(c1cccc(F)c1)N1CCN(c2ccc([N+](=O)[O-])c3cccnc23)CC1 :
### Response inactive

### Prompt Call for entry COc1ccc(C(=O)NC(=S)NNC(=O)CCc2ccccc2)cc1 :
### Response inactive

### Prompt Call for entry O=C(CC(=O)Nc1ccc(Cl)c(Cl)c1)N/N=C/c1ccc(O)cc1 :
### Response inactive
